Target: Zif268 (three-finger peptide) (UniProt P08046 P08046:333-421)
Test: EMSA; pH 7.0, 100 mM NaCl, 5 mM MgCl2, Zn, room temp
READOUT KIND: Kd (nM)
Numbers only, in nM.

Per the record, NZ site (dsDNA) DNA 1: TCTGCAAGGGTTCAGCGTGGGCGGTAAG DNA 2: CTTACCGCCCACGCTGAACCCTTGCAGA has Kd of 0.012

These measurements were taken from patent US6903185.
